Tested on: HeLa cells
METHOD_NOTES: In vitro Fluc expression with variable peptoid:mRNA mass ratio, 2% DMG-PEG2000
Assay type: cell-based
TEST_CONDITIONS: 24 h, 2% (w/w) DMG-PEG2000, peptoid:mRNA 2:1
Listed here are molecules together with their documented Observed Luciferase Expression (RLU) for Given Formulation Mass Ratio 2:1.
Answer in RLU, number only, no unit symbol.

Some molecules with known Observed Luciferase Expression (RLU) for Given Formulation Mass Ratio 2:1 results, for comparison:
SUBSTANCE_SMILES	VALUE_OBSERVED
CCCCCCCCCCNCC(=O)N(CCN)CC(=O)N(CCc1ccccc1)CC(=O)N(CCc1ccccc1)CC(=O)N(CCN)CC(=O)N(CCc1ccccc1)CC(=O)N(CCc1ccccc1)CC(=O)N(CCN)CC(=O)N(CCc1ccccc1)CC(=O)N(CCc1ccccc1)CC(=O)N(CCCCCCCCCC)CC(N)=O	1.53E+03
CCCCCCCCCCN(CC(=O)N(CCN)CC(=O)N(CCc1ccccc1)CC(=O)N(CCc1ccccc1)CC(=O)N(CCCCCCCCCC)CC(=O)N(CCN)CC(=O)N(CCc1ccccc1)CC(=O)N(CCc1ccccc1)CC(N)=O)C(=O)CN(CCc1ccccc1)C(=O)CN(CCc1ccccc1)C(=O)CNCCN	2.72E+03

Sample CCCCCCCCCCN(CC(N)=O)C(=O)CN(CCCCCCCCCC)C(=O)CN(CCCCCCCCCC)C(=O)CN(CCCCCCCCCC)C(=O)CN(CCCCCCCCCC)C(=O)CN(CCc1ccccc1)C(=O)CN(CCc1ccccc1)C(=O)CN(CCN)C(=O)CN(CCc1ccccc1)C(=O)CN(CCc1ccccc1)C(=O)CNCCN — what was its Observed Luciferase Expression (RLU) for Given Formulation Mass Ratio 2:1?
1.31E+03

---

System: HeLa cells
METHOD_NOTES: In vitro expression of firefly luciferase (Fluc) after treatment with Fluc mRNA/amino lipidated peptoid formulations, no PEG or 2% DMG-PEG2000
Format: cell-based
TEST_CONDITIONS: no PEG, peptoid:Fluc mRNA 5:1 w/w, 100 ng/well, 6 h of treatment
Procedure: The efficacy of mRNA/amino lipidated peptoid formulations was evaluated in vitro based on their ability to deliver the firefly luciferase (Fluc) reporter gene to cultured cells. Amino lipidated peptoids were combined with Fluc mRNA at a 5:1 w/w ratio, and the resulting particles were added to cultured HeLa cells at a dose of 100 ng/well (in 100 μL total volume). The resulting luciferase expression (RLU) was measured by a luminescence plate reader after 6 hours and 24 hours of treatment. […]
MEASURED_ATTRIBUTE: Luciferase Expression (RLU) 6 h
Just the number please, in RLU, no unit attached.

Some solved cases for reference:
SUBSTANCE_SMILES	READING_UNIT	VALUE_OBSERVED
CCCCCCCCCCCCN(CC(N)=O)C(=O)CN(CCCCCCCCCCCC)C(=O)CN(CCc1ccc(OC)cc1)C(=O)CN(CCc1ccc(OC)cc1)C(=O)CN(CCN)C(=O)CN(CCc1ccc(OC)cc1)C(=O)CN(CCc1ccc(OC)cc1)C(=O)CN(CCN)C(=O)CN(CCc1ccc(OC)cc1)C(=O)CN(CCc1ccc(OC)cc1)C(=O)CNCCN	RLU	1.96E+02
CCCCCCCCCCN(CC(N)=O)C(=O)CN(CCCCCCCCCC)C(=O)CN(CCN)C(=O)CN(CCN)C(=O)CN(CCN)C(=O)CN(CCN)C(=O)CNCCN	RLU	3.93E+01

Given the molecule CCCCCCCCCCN(CC(N)=O)C(=O)CN(CCCCCCCCCC)C(=O)CN(CCCCCCCCCC)C(=O)CN(CCCCCCCCCC)C(=O)CN(CCCCCCCCCC)C(=O)CN(CCc1ccccc1)C(=O)CN(CCc1ccccc1)C(=O)CN(CCN)C(=O)CN(CCc1ccccc1)C(=O)CN(CCc1ccccc1)C(=O)CNCCN , what is its reported Luciferase Expression (RLU) 6 h?
9.91E+03

CCCCCCCCCCN(CC(N)=O)C(=O)CN(CCc1ccccc1)C(=O)CN(CCc1ccccc1)C(=O)CN(CCN)C(=O)CN(CCc1ccccc1)C(=O)CN(CCc1ccccc1)C(=O)CN(CCN)C(=O)CN(CCc1ccccc1)C(=O)CN(CCc1ccccc1)C(=O)CNCCN , same question.
4.30E+01

What would you report for CCCCCCCCCCN(CC(N)=O)C(=O)CN(CCCCCCCCCC)C(=O)CN(CCc1ccccc1)C(=O)CN(CCc1ccccc1)C(=O)CN(CCNC)C(=O)CN(CCc1ccccc1)C(=O)CN(CCc1ccccc1)C(=O)CN(CCNC)C(=O)CN(CCc1ccccc1)C(=O)CN(CCc1ccccc1)C(=O)CNCCNC ?
9.88E+02

Do the same for CCCCCCCCCCCCN(CC(N)=O)C(=O)CN(CCCCCCCCCCCC)C(=O)CN(CCc1ccccc1)C(=O)CN(CCc1ccccc1)C(=O)CN(CCN)C(=O)CN(CCc1ccccc1)C(=O)CN(CCc1ccccc1)C(=O)CN(CCN)C(=O)CN(CCc1ccccc1)C(=O)CN(CCc1ccccc1)C(=O)CNCCN please
2.27E+02

Another: CCCCCCCCCCN(CC(N)=O)C(=O)CN(CCCCCCCCCC)C(=O)CN(CCCCCCCCCC)C(=O)CN(CCCCCCCCCC)C(=O)CN(CCc1ccccc1)C(=O)CN(CCc1ccccc1)C(=O)CN(CC1CCNCC1)C(=O)CN(CCc1ccccc1)C(=O)CN(CCc1ccccc1)C(=O)CN(CC1CCNCC1)C(=O)CN(CCc1ccccc1)C(=O)CN(CCc1ccccc1)C(=O)CN(CC1CCNCC1)C(=O)CN(CCc1ccccc1)C(=O)CN(CCc1ccccc1)C(=O)CNCC1CCNCC1
4.25E+02

---

A collection of compounds and their measured Luciferase Expression (RLU) 6 h
System: HeLa cells
METHOD_NOTES: In vitro expression of firefly luciferase (Fluc) after treatment with Fluc mRNA/amino lipidated peptoid formulations, no PEG or 2% DMG-PEG2000
Assay type: cell-based
TEST_CONDITIONS: with 2% (w/w) DMG-PEG2000, peptoid:mRNA 5:1, 6 h after treatment
Record the value in RLU, omitting the unit from your answer.

Example compounds with recorded Luciferase Expression (RLU) 6 h:
SUBSTANCE_SMILES	TGT	Luciferase Expression (RLU) 6 h
CCCCCCCCCCN(CC(N)=O)C(=O)CN(CCCCCCCCCC)C(=O)CN(CCc1ccccc1)C(=O)CN(CCc1ccccc1)C(=O)CN(CCCN)C(=O)CN(CCc1ccccc1)C(=O)CN(CCc1ccccc1)C(=O)CN(CCCN)C(=O)CN(CCc1ccccc1)C(=O)CN(CCc1ccccc1)C(=O)CNCCCN	HeLa cells	1.79E+03
CCCCCCCCCCNCC(=O)N(CCN)CC(=O)N(CCc1ccccc1)CC(=O)N(CCc1ccccc1)CC(=O)N(CCN)CC(=O)N(CCc1ccccc1)CC(=O)N(CCc1ccccc1)CC(=O)N(CCN)CC(=O)N(CCc1ccccc1)CC(=O)N(CCc1ccccc1)CC(=O)N(CCCCCCCCCC)CC(N)=O	HeLa cells	8.50E+01
CCCCCCCCCCN(CC(N)=O)C(=O)CN(CCCCCCCCCC)C(=O)CN(CCCCCCCCCC)C(=O)CN(CCc1ccccc1)C(=O)CN(CCc1ccccc1)C(=O)CN(CCN)C(=O)CN(CCc1ccccc1)C(=O)CN(CCc1ccccc1)C(=O)CN(CCN)C(=O)CN(CCc1ccccc1)C(=O)CN(CCc1ccccc1)C(=O)CNCCN	HeLa cells	2.77E+03
CCCCCCCCCCCCN(CC(N)=O)C(=O)CN(CCCCCCCCCCCC)C(=O)CN(CCc1ccccc1)C(=O)CN(CCc1ccccc1)C(=O)CN(CCN)C(=O)CN(CCc1ccccc1)C(=O)CN(CCc1ccccc1)C(=O)CN(CCN)C(=O)CN(CCc1ccccc1)C(=O)CN(CCc1ccccc1)C(=O)CNCCN	HeLa cells	3.14E+02
CCCCCCCCCCN(CC(N)=O)C(=O)CN(CCCCCCCCCC)C(=O)CN(CCCCCCCCCC)C(=O)CN(CCCCCCCCCC)C(=O)CN(CCc1ccccc1)C(=O)CN(CCc1ccccc1)C(=O)CN(CCNC)C(=O)CN(CCc1ccccc1)C(=O)CN(CCc1ccccc1)C(=O)CN(CCNC)C(=O)CN(CCc1ccccc1)C(=O)CN(CCc1ccccc1)C(=O)CNCCNC	HeLa cells	1.81E+03

Next:
Entry CCCCCCCCCCN(CC(N)=O)C(=O)CN(CCCCCCCCCC)C(=O)CN(CCc1ccccc1)C(=O)CN(CCc1ccccc1)C(=O)CN(CCN)C(=O)CN(CCc1ccccc1)C(=O)CN(CCc1ccccc1)C(=O)CN(CCN)C(=O)CN(CCc1ccccc1)C(=O)CN(CCc1ccccc1)C(=O)CN(CCN)C(=O)CN(CCc1ccccc1)C(=O)CN(CCc1ccccc1)C(=O)CNCCN has what Luciferase Expression (RLU) 6 h?
3.90E+02

---

Below, each entry is listed with its recorded viability at 8 h, 500 ng/well.
METHOD_NOTES: MTT viability assay after treatment with Fluc mRNA/amino lipidated peptoid formulations
Format: cell-based
TEST_CONDITIONS: human, HeLa cells, Relative Viability (%) 2% PEG
Numbers only here, please. The scale is %.

MOLECULE	viability at 8 h, 500 ng/well, %
CCCCCCCCCCN(CC(N)=O)C(=O)CN(CCCCCCCCCC)C(=O)CN(CCc1ccccc1)C(=O)CN(CCc1ccccc1)C(=O)CN(CCN)C(=O)CN(CCc1ccccc1)C(=O)CN(CCc1ccccc1)C(=O)CN(CCN)C(=O)CN(CCc1ccccc1)C(=O)CN(CCc1ccccc1)C(=O)CNCCN [Compound 2]	92.6
CCCCCCCCCCN(CC(N)=O)C(=O)CN(CCCCCCCCCC)C(=O)CN(CCc1ccccc1)C(=O)CN(CCc1ccccc1)C(=O)CN(CC1CCNCC1)C(=O)CN(CCc1ccccc1)C(=O)CN(CCc1ccccc1)C(=O)CN(CC1CCNCC1)C(=O)CN(CCc1ccccc1)C(=O)CN(CCc1ccccc1)C(=O)CNCC1CCNCC1 [Compound 33]	98
CCCCCCCCCCN(CC(N)=O)C(=O)CN(CCCCCCCCCC)C(=O)CN(CCc1ccccc1)C(=O)CN(CCc1ccccc1)C(=O)CNCCN [Compound 9]	107

// next entry
Look at this molecule and give its reported viability at 8 h, 500 ng/well. CCCCCCCCCCN(CC(N)=O)C(=O)CN(CCCCCCCCCC)C(=O)CN(CCN)C(=O)CN(CCN)C(=O)CNCCN [Compound 14]
91

Data provenance: patent US20220323594A1
